# Method notes: blockers of bacterial quorum-sensing reporter fluorescence – flow cytometry, SAR analogs, SAR follow-up (AID 1014);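 note: Staphylococcus aureus RN6390 with RNAIII-GFP reporter stimulated by AIP; bacteria incubated with compound for 3 hours at 37 °C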
# Assay conditions: at 20 µM, stronger effect = higher value; measured here: percent reporter-positive cells
List of inhibition of percent positive cells values.
Provide only the numeric value, understood in %.

In the examples that follow, each entry is paired with its recorded inhibition of percent positive cells.
INSERT INTO measurements (compound, result) VALUES
  ('CC(=O)c1cc2c(cc1NC(=O)CN1CCOCC1)OCO2', -1),
  ('CC(=O)c1ccc(Nc2nc3c(S(=O)(=O)c4ccccc4)nnn3c3ccccc23)cc1', 0.1),
  ('COc1cc(C(=O)NCC(c2cccnc2)N2CCN(c3ccccc3F)CC2)cc(OC)c1OC (stereo not given)', -1.5),
  ('CC(=O)c1cc2c(cc1NC(=O)CN1CCN(C(c3ccccc3)c3ccccc3)CC1)OCO2', 0.4),
  ('Cc1ccc(Nc2ncccc2C(=O)O)cc1', -1.3),
  ('COc1ccc(NC(=O)C(c2cc3c(cc2[N+](=O)[O-])OCO3)N2CCCC(C)C2)cc1 (stereo not given)', -0.9),
  ('O=C(NCC(c1cccnc1)N1CCN(c2ccccc2)CC1)c1ccccc1F (stereo not given)', -1.7),
  ('CC(C)c1ccc(S(=O)(=O)c2n[nH]n3c2nc(=O)c2ccccc23)cc1', 22.1);

Sure, the documented inhibition of percent positive cells for O=C(NCC(c1cccnc1)N1CCN(c2ccccc2F)CC1)c1ccccc1 (stereo not given) is -1.5

Sure, the documented inhibition of percent positive cells for "N#Cc1c(NC(=O)COc2ccccc2)sc2c1CCCC2" is 2.5

Sure, the documented inhibition of percent positive cells for "CCOC(=O)c1cnc2ccc(OC(F)(F)F)cc2c1Nc1ccccc1C(=O)O" is 0.6

Sure, the documented inhibition of percent positive cells for O=C(NC1CCCC1)C(c1cc2c(cc1[N+](=O)[O-])OCO2)N1CCOCC1 (stereo not given) is -0.1

Sure, the documented inhibition of percent positive cells for COc1ccc(N2CCN(C(CNC(=O)c3cccc(Cl)c3)c3cccnc3)CC2)cc1 (stereo not given) is -1.7

Sure, the documented inhibition of percent positive cells for O=C(NCC(c1cccnc1)N1CCN(c2ccc(F)cc2)CC1)c1cccs1 (stereo not given) is -0.3

Sure, the documented inhibition of percent positive cells for "COc1c(F)c(F)c(C(=O)O)c(Nc2ccccc2)c1F" is -2.3

Sure, the documented inhibition of percent positive cells for "Cc1ccc(Nc2c(C(=O)O)cc([N+](=O)[O-])cc2[N+](=O)[O-])cc1Cl" is -0.4

Sure, the documented inhibition of percent positive cells for "N#Cc1c(NC(=O)CCN2C(=O)c3ccccc3C2=O)oc(-c2ccccc2)c1-c1ccccc1" is -0.3

Sure, the documented inhibition of percent positive cells for Cc1ccc(N=C2NC(=O)CC(C(=O)Nc3cccc4ccccc34)S2)cc1 (stereo not given) is -0.7

Sure, the documented inhibition of percent positive cells for "COc1ccc(S(=O)(=O)c2nnn3c2nc(Nc2ccccc2)c2ccccc23)cc1" is 0.4

* * *

# Method notes: blockers of bacterial quorum-sensing reporter fluorescence – flow cytometry, SAR analogs, SAR follow-up (AID 1014);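 note: Staphylococcus aureus RN6390 with RNAIII-GFP reporter stimulated by AIP; bacteria incubated with compound for 3 hours at 37 °C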
# Assay conditions: at 20 µM, stronger effect = higher value
List of inhibition of mean fluorescence values.
Provide only the numeric value, understood in %.

In the examples that follow, each entry is paired with its recorded inhibition of mean fluorescence.
INSERT INTO results (compound, unit, result) VALUES
  ('O=C(c1ccco1)c1coc2ccc(O)cc12', '%', -10.7),
  ('CN1CCN(C(C(=O)NC2CCCCC2)c2cc3c(cc2[N+](=O)[O-])OCO3)CC1 (stereo not drawn)', '%', -5.8),
  ('CC1CCN(C(C(=O)NC2CCCC2)c2cc3c(cc2[N+](=O)[O-])OCO3)CC1 (stereo not drawn)', '%', -5.4),
  ('CCOC(=O)c1c(-c2ccc(OC)cc2)oc2ccc(O)cc12', '%', -20.8),
  ('O=C(O)c1c(F)c(F)c(F)c(F)c1Nc1cccc(C(F)(F)F)c1', '%', 6),
  ('Cc1ccc(C)c(Nc2c(F)c(F)c(F)c(F)c2C(=O)O)c1', '%', 2.3),
  ('COc1ccc(S(=O)(=O)c2nnn3c2nc(Nc2ccccc2C)c2ccccc23)cc1', '%', -17.1),
  ('CCc1ccc(S(=O)(=O)c2n[nH]n3c2nc(=O)c2ccccc23)cc1', '%', 87.7),
  ('Cc1ccc2occ(/C=C/C(=O)c3ccc(O)cc3)c(=O)c2c1', '%', -0.6),
  ('Cc1cccc(OCC(=O)Nc2sc3c(c2C#N)CCCC3)c1C', '%', 28.1);

Sure, the documented inhibition of mean fluorescence for O=C(Nc1ccc2c(c1)OCO2)C(c1ccccc1)N1CCN(C(=O)c2ccco2)CC1 (stereo not drawn) is -23.7

Sure, the documented inhibition of mean fluorescence for "Cc1cc(C)nc(Nc2ccc(Br)cc2C(=O)O)n1" is 17.1

Sure, the documented inhibition of mean fluorescence for Cc1ccc(N=C2NC(=O)CC(C(=O)Nc3cccc4ccccc34)S2)cc1 (stereo not drawn) is -4.5

Sure, the documented inhibition of mean fluorescence for "O=C(CSc1cn(CC(=O)N2CCCCC2)c2ccccc12)Nc1ccc2c(c1)OCO2" is -6.3

Sure, the documented inhibition of mean fluorescence for COc1ccc(NC(=O)C(c2cc3c(cc2[N+](=O)[O-])OCO3)N2CCCC(C)C2)cc1 (stereo not drawn) is 29.6
